biological target: UniProtKB P55055; assay: Agonist activity at LXRbeta LBD by HTRF cofactor peptide recruitment assay; type: functional
Sequence (P55055 whole entry, the tested form may be a part): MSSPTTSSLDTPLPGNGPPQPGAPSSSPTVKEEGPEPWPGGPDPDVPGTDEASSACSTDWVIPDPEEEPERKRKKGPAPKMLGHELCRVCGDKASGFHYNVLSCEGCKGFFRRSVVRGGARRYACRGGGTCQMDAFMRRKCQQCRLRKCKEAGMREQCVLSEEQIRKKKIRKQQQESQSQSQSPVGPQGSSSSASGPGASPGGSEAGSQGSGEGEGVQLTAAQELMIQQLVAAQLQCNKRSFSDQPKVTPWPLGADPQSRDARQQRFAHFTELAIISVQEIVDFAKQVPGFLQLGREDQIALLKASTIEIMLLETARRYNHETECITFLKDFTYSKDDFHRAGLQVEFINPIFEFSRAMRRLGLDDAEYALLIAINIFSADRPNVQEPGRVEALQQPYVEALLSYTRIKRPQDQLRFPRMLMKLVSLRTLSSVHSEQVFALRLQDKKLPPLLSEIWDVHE
pEC50: −log10 of the molar value.
Reported property: pEC50

INSERT INTO results (molecule, reported_property, value_measured) VALUES
  ('CC(C)(C)OC(=O)n1c(-c2ccc3c(c2)CC(NS(=O)(=O)c2ccccc2)C3)cc2cc(F)ccc21 (stereo not drawn)', 'pEC50', 5.82),
  ('Cc1cccc(S(=O)(=O)NC2Cc3ccc(-c4cc5ccccc5n4C(=O)OC(C)(C)C)cc3C2)c1 (stereo not drawn)', 'pEC50', 5.88),
  ('CC(C)(C)OC(=O)n1c(-c2ccc3c(c2)CC(NS(=O)(=O)c2ccccc2C(F)(F)F)C3)cc2ccccc21 (stereo not drawn)', 'pEC50', 6.10),
  ('O=C(C1CCCC1)n1c(-c2ccc3c(c2)CC(NS(=O)(=O)c2ccccc2)C3)cc2ccccc21 (stereo not drawn)', 'pEC50', 6.05);

1: CC(C)(C)OC(=O)n1c(-c2ccc3c(c2)C[C@H](NS(=O)(=O)c2ccccc2)C3)cc2ccccc21
2: CC(C)(C)OC(=O)n1c(-c2ccc3c(c2)CC(NS(=O)(=O)c2ccc(-c4ccccc4)cc2)C3)cc2ccccc21 (stereo not drawn)
For this pair, 1 and 2 , which shows a numerically higher pEC50? Returns: label corresponding to the selected item.
1
(1: 6.18, 2: 5.68)

Each recorded value in this set is attributed to ChEMBL document CHEMBL1139922.
